Where these numbers come from: ChEMBL document CHEMBL4715798

Tested on: Mus musculus
ASSAY METHOD TEXT: Antinociceptive activity in mouse dosed repeated icv injections for 6 days by radiant heat tail-flick test
Type: functional
APPLIED CONDITIONS: time 6 day
Non-standard residues stand in square brackets, D forms with d. Residues, ends and D or L forms follow the SMILES beside them.
// values below are reported ED50

{"MOLECULE": "C[C@@H](NC(=O)[C@@H](N)Cc1ccc(O)cc1)C(=O)NCC(=O)N[C@@H](Cc1ccccc1)C(=O)N[C@H](C)C(=O)N1CCC[C@H]1C(=O)N[C@@H](CCC(N)=O)C(=O)N[C@@H](CCCNC(=N)N)C(=O)N[C@@H](Cc1ccccc1)C(N)=O (H-Y[dA]GF[dA]PQRF-NH2)", "ED50": "0.3361 nmol"}
{"MOLECULE": "CC(C)C[C@H](NC(=O)[C@H](Cc1ccccc1)NC(=O)CNC(=O)[C@@H](C)NC(=O)[C@@H](N)Cc1ccc(O)cc1)C(=O)N1CCC[C@H]1C(=O)N[C@@H](CCC(N)=O)C(=O)N[C@@H](CCCNC(=N)N)C(=O)N[C@@H](Cc1ccccc1)C(N)=O (H-Y[dA]GFLPQRF-NH2)", "ED50": "0.1865 nmol"}
{"MOLECULE": "C[C@@H](NC(=O)[C@@H](N)Cc1ccc(O)cc1)C(=O)NCC(=O)N[C@@H](Cc1ccccc1)C(=O)N[C@@H](CCC(N)=O)C(=O)N1CCC[C@H]1C(=O)N[C@@H](CCC(N)=O)C(=O)N[C@@H](CCCNC(=N)N)C(=O)N[C@@H](Cc1ccccc1)C(N)=O (H-Y[dA]GFQPQRF-NH2)", "ED50": "0.533 nmol"}
{"MOLECULE": "N=C(N)NCCC[C@H](NC(=O)[C@H](CCC(N)=O)NC(=O)[C@@H]1CCCN1C(=O)[C@H](CCC(N)=O)NC(=O)[C@H](Cc1ccccc1)NC(=O)CNC(=O)[C@@H](CO)NC(=O)[C@@H](N)Cc1ccc(O)cc1)C(=O)N[C@@H](Cc1ccccc1)C(N)=O", "ED50": "0.6062 nmol"}

---

SYSTEM NAME: UniProt:P35372
Sequence (P35372 whole entry): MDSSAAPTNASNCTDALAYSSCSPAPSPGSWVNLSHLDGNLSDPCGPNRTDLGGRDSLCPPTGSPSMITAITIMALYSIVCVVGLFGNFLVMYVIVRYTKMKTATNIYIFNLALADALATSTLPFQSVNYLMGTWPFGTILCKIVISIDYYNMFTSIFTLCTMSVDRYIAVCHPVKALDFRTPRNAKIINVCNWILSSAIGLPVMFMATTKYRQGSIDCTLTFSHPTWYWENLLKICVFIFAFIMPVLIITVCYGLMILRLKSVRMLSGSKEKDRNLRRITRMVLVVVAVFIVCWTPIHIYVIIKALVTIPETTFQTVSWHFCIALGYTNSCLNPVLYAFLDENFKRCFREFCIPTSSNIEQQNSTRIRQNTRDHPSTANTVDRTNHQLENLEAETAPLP
ASSAY METHOD TEXT: Agonist activity at mu opioid receptor (unknown origin) expressed in HEK293-A cells assessed as reduction in forskolin-induced cAMP accumulation incubated for 30 mins by competition PKA binding assay relative to Tyr-D-Ala-Gly-Phe-Gln-Pro-Gln-Arg-Phe-NH2
Format: functional, cell-based
APPLIED CONDITIONS: filed as agonist
Non-standard residues stand in square brackets, D forms with d. Residues, ends and D or L forms follow the SMILES beside them. NMeY = CN[C@@H](Cc1ccc(O)cc1)C(=O)O
ASSAY ENDPOINT: Emax

{"COMPOUND": "CC(C)C[C@H](NC(=O)[C@H](Cc1ccccc1)NC(=O)CNC(=O)[C@@H](C)NC(=O)[C@@H](N)Cc1ccc(O)cc1)C(=O)N1CCC[C@H]1C(=O)N[C@@H](CCC(N)=O)C(=O)N[C@@H](CCCNC(=N)N)C(=O)N[C@@H](Cc1ccccc1)C(N)=O (H-Y[dA]GFLPQRF-NH2)", "RESULT": "98.9%"}
{"COMPOUND": "CSCC[C@@H](NC(=O)[C@@H](N)Cc1ccc(O)cc1)C(=O)NCC(=O)N[C@@H](Cc1ccccc1)C(=O)N[C@@H](CCC(N)=O)C(=O)N1CCC[C@H]1C(=O)N[C@@H](CCC(N)=O)C(=O)N[C@@H](CCCNC(=N)N)C(=O)N[C@@H](Cc1ccccc1)C(N)=O", "RESULT": "89.4%"}
{"COMPOUND": "CN[C@@H](Cc1ccc(O)cc1)C(=O)N[C@H](C)C(=O)NCC(=O)N[C@@H](Cc1ccccc1)C(=O)N[C@@H](CCC(N)=O)C(=O)N1CCC[C@H]1C(=O)N[C@@H](CCC(N)=O)C(=O)N[C@@H](CCCNC(=N)N)C(=O)N[C@@H](Cc1ccccc1)C(N)=O (H-[NMeY][dA]GFQPQRF-NH2)", "RESULT": "86.7%"}
{"COMPOUND": "CC(C)C[C@@H](NC(=O)[C@H](Cc1ccccc1)NC(=O)CNC(=O)[C@@H](C)NC(=O)[C@@H](N)Cc1ccc(O)cc1)C(=O)N1CCC[C@H]1C(=O)N[C@@H](CCC(N)=O)C(=O)N[C@@H](CCCNC(=N)N)C(=O)N[C@@H](Cc1ccccc1)C(N)=O (H-Y[dA]GF[dL]PQRF-NH2)", "RESULT": "86.3%"}
